From: paper PMC8364686

- Assay Details: Plasma pharmacokinetics of BI 187004 after single oral doses (LC–MS/MS)
- Condition Description: male, human, plasma, po, 160 mg, BI 187004 plasma concentrations, 160 mg single oral, planned time 8 h, gMean
Metric: concentration at 8 h (µM)
Just the number please, in µM, no unit attached.

Request: Can you share its concentration at 8 h? I mean this molecule: N#Cc1ccc2c(c1)[C@H]1CCCN(C(=O)c3ccc4[nH]cnc4c3)[C@H]1C2 [BI 187004]
Response: 3.67

====

- Assay Details: Plasma pharmacokinetics of BI 187004 after single oral doses (LC–MS/MS)
- Condition Description: male, human, plasma, po, 360 mg, BI 187004 plasma concentrations, gMean, 360 mg single oral, planned time 12 h
Metric: concentration at 12 h (µM)
Just the number please, in µM, no unit attached.

Request: Can you share its concentration at 12 h? I mean this molecule: `N#Cc1ccc2c(c1)[C@H]1CCCN(C(=O)c3ccc4[nH]cnc4c3)[C@H]1C2`
Response: 4.78

====

- Assay Details: Plasma pharmacokinetics of BI 187004 after single oral doses (LC–MS/MS)
- Condition Description: male, human, plasma, po, 2.5 mg, Plasma concentration Mean, 2.5 mg single oral; 48 h
Metric: concentration at 48 h (nM)
Just the number please, in nM, no unit attached.

Request: Can you share its concentration at 48 h? I mean this molecule: `N#Cc1ccc2c(c1)[C@H]1CCCN(C(=O)c3ccc4[nH]cnc4c3)[C@H]1C2`
Response: 3.99

====

- Assay Details: Plasma pharmacokinetics of BI 187004 after single oral doses (LC–MS/MS)
- Condition Description: male, human, plasma, po, 160 mg, BI 187004 plasma concentrations, 160 mg single oral, planned time 1 h, gMean
Metric: concentration at 1 h (µM)
Just the number please, in µM, no unit attached.

Request: Can you share its concentration at 1 h? I mean this compound: N#Cc1ccc2c(c1)[C@H]1CCCN(C(=O)c3ccc4[nH]cnc4c3)[C@H]1C2 [BI 187004]
Response: 7.04

====

- Assay Details: Plasma pharmacokinetics of BI 187004 after single oral doses (LC–MS/MS)
- Condition Description: male, human, plasma, po, 40 mg
Metric: AUC(0-t) (µM·h)
Just the number please, in µM·h, no unit attached.

Request: Can you share its AUC(0-t)? I mean this compound: `N#Cc1ccc2c(c1)[C@H]1CCCN(C(=O)c3ccc4[nH]cnc4c3)[C@H]1C2`
Response: 19.9

====

- Assay Details: Plasma pharmacokinetics of BI 187004 after single oral doses (LC–MS/MS)
- Condition Description: male, human, plasma, po, 5 mg, Plasma concentration Mean, 5 mg single oral; 72 h
Metric: concentration at 72 h (nM)
Just the number please, in nM, no unit attached.

Request: Can you share its concentration at 72 h? I mean this compound: N#Cc1ccc2c(c1)[C@H]1CCCN(C(=O)c3ccc4[nH]cnc4c3)[C@H]1C2 [BI 187004]
Response: 7.42

====

- Assay Details: Plasma pharmacokinetics of BI 187004 after single oral doses (LC–MS/MS)
- Condition Description: male, human, plasma, po, 5 mg, Plasma concentration Mean, 5 mg single oral; 12 h
Metric: concentration at 12 h (nM)
Just the number please, in nM, no unit attached.

Request: Can you share its concentration at 12 h? I mean this molecule: `N#Cc1ccc2c(c1)[C@H]1CCCN(C(=O)c3ccc4[nH]cnc4c3)[C@H]1C2`
Response: 49.7

====

- Assay Details: Plasma pharmacokinetics of BI 187004 after single oral doses (LC–MS/MS)
- Condition Description: male, human, plasma, po, 40 mg, BI 187004 plasma concentrations, 40 mg single oral, planned time 2.5 h, Min
Metric: concentration at 2.5 h (nM)
Just the number please, in nM, no unit attached.

Request: Can you share its concentration at 2.5 h? I mean this compound: `N#Cc1ccc2c(c1)[C@H]1CCCN(C(=O)c3ccc4[nH]cnc4c3)[C@H]1C2`
Response: 1160

====

- Assay Details: Plasma pharmacokinetics of BI 187004 after single oral doses (LC–MS/MS)
- Condition Description: male, human, plasma, po, 10 mg, Plasma concentration Median, 10 mg single oral; 3 h
Metric: concentration at 3 h

Request: Can you share its concentration at 3 h? I mean this compound: `N#Cc1ccc2c(c1)[C@H]1CCCN(C(=O)c3ccc4[nH]cnc4c3)[C@H]1C2`
Response: 334 nM

====

- Assay Details: Plasma pharmacokinetics of BI 187004 after single oral doses (LC–MS/MS)
- Condition Description: male, human, plasma, po, 5 mg, Plasma concentration gMean, 5 mg single oral; 2.5 h
Metric: concentration at 2.5 h
Remember to quote the unit after the number.

Request: Can you share its concentration at 2.5 h? I mean this molecule: N#Cc1ccc2c(c1)[C@H]1CCCN(C(=O)c3ccc4[nH]cnc4c3)[C@H]1C2 [BI 187004]
Response: 122 nM

====

- Assay Details: Plasma pharmacokinetics of BI 187004 after single oral doses (LC–MS/MS)
- Condition Description: male, human, plasma, po, 80 mg, BI 187004 plasma concentrations, 80 mg single oral, planned time 2 h, Max
Metric: concentration at 2 h (µM)
Just the number please, in µM, no unit attached.

Request: Can you share its concentration at 2 h? I mean this molecule: `N#Cc1ccc2c(c1)[C@H]1CCCN(C(=O)c3ccc4[nH]cnc4c3)[C@H]1C2`
Response: 3.59

====

- Assay Details: Plasma pharmacokinetics of BI 187004 after single oral doses (LC–MS/MS)
- Condition Description: male, human, plasma, po, 80 mg, BI 187004 plasma concentrations, 80 mg single oral, planned time 0.5 h, Max
Metric: concentration at 0.5 h (µM)
Just the number please, in µM, no unit attached.

Request: Can you share its concentration at 0.5 h? I mean this molecule: `N#Cc1ccc2c(c1)[C@H]1CCCN(C(=O)c3ccc4[nH]cnc4c3)[C@H]1C2`
Response: 4.48

====

- Assay Details: Plasma pharmacokinetics of BI 187004 after single oral doses (LC–MS/MS)
- Condition Description: male, human, plasma, po, 160 mg, BI 187004 plasma concentrations, 160 mg single oral, planned time 72 h, Mean
Metric: concentration at 72 h (nM)
Just the number please, in nM, no unit attached.

Request: Can you share its concentration at 72 h? I mean this molecule: `N#Cc1ccc2c(c1)[C@H]1CCCN(C(=O)c3ccc4[nH]cnc4c3)[C@H]1C2`
Response: 139

====

- Assay Details: Plasma pharmacokinetics of BI 187004 after single oral doses (LC–MS/MS)
- Condition Description: male, human, plasma, po, 80 mg, C24 gMean (%gCV), 80 mg single oral dose
Metric: concentration at 24 h

Request: Can you share its concentration at 24 h? I mean this compound: `N#Cc1ccc2c(c1)[C@H]1CCCN(C(=O)c3ccc4[nH]cnc4c3)[C@H]1C2`
Response: 878 nM

====

- Assay Details: Plasma pharmacokinetics of BI 187004 after single oral doses (LC–MS/MS)
- Condition Description: male, human, plasma, po, 10 mg
Metric: Vd/F (L)
Just the number please, in L, no unit attached.

Request: Can you share its Vd/F? I mean this molecule: `N#Cc1ccc2c(c1)[C@H]1CCCN(C(=O)c3ccc4[nH]cnc4c3)[C@H]1C2`
Response: 169

====

- Assay Details: Plasma pharmacokinetics of BI 187004 after single oral doses (LC–MS/MS)
- Condition Description: male, human, plasma, po, 10 mg, Plasma concentration Mean, 10 mg single oral; 10 h
Metric: concentration at 10 h (nM)
Just the number please, in nM, no unit attached.

Request: Can you share its concentration at 10 h? I mean this compound: N#Cc1ccc2c(c1)[C@H]1CCCN(C(=O)c3ccc4[nH]cnc4c3)[C@H]1C2 [BI 187004]
Response: 182

====

- Assay Details: Plasma pharmacokinetics of BI 187004 after single oral doses (LC–MS/MS)
- Condition Description: male, human, plasma, po, 240 mg, BI 187004 plasma concentrations, gMean, 240 mg single oral, planned time 0.5 h
Metric: concentration at 0.5 h (µM)
Just the number please, in µM, no unit attached.

Request: Can you share its concentration at 0.5 h? I mean this compound: `N#Cc1ccc2c(c1)[C@H]1CCCN(C(=O)c3ccc4[nH]cnc4c3)[C@H]1C2`
Response: 3.18

====

- Assay Details: Plasma pharmacokinetics of BI 187004 after single oral doses (LC–MS/MS)
- Condition Description: male, human, plasma, po, 360 mg, BI 187004 plasma concentrations, Mean, 360 mg single oral, planned time 10 h
Metric: concentration at 10 h (µM)
Just the number please, in µM, no unit attached.

Request: Can you share its concentration at 10 h? I mean this molecule: N#Cc1ccc2c(c1)[C@H]1CCCN(C(=O)c3ccc4[nH]cnc4c3)[C@H]1C2 [BI 187004]
Response: 5.5
